target: Mitogen-activated protein kinase kinase kinase kinase 1 (Homo sapiens, UniProt Q92918); experiment: HPK1 Lantha Binding Assay (“Lanth”)
Sequence (Q92918 whole entry): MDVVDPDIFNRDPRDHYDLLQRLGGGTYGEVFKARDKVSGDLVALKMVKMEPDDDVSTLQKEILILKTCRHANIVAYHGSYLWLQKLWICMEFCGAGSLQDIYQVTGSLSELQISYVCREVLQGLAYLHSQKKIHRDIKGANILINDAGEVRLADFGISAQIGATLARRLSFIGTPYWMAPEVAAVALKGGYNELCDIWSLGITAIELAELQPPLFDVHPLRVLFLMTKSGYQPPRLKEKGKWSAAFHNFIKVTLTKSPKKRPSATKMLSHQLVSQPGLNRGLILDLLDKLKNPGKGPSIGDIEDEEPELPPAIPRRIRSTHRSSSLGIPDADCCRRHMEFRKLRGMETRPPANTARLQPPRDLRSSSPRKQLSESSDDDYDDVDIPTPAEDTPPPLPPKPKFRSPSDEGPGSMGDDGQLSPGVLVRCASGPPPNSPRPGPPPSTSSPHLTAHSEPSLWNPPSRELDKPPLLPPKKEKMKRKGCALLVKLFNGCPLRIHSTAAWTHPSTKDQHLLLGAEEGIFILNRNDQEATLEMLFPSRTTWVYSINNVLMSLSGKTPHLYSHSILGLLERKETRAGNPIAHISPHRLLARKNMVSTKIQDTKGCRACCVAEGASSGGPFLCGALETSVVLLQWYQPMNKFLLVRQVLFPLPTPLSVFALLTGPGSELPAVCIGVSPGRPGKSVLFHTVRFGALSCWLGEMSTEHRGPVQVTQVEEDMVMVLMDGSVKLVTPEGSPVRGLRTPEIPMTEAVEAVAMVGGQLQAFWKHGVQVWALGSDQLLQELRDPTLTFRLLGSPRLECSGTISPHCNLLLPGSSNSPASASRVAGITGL
REPORTED ENDPOINT: pKi
API: returns pKi as number; meaning -log10 of concentration in mol/L.

Enquiry: Return pKi measured with Mitogen-activated protein kinase kinase kinase kinase 1 (Homo sapiens, UniProt Q92918) given this molecule: CCc1ccnc(Nc2cc3cc(-c4cnccc4C)ccc3cn2)c1 [US12378249, Compound 105]
Return: 8.22

----------
biological target: Mitogen-activated protein kinase kinase kinase kinase 1 [T165E,S171E] (Homo sapiens, UniProt Q92918, S171E/T165E); assay: HPK1 Lantha Binding Assay (“Lanth”)
Sequence (Q92918 whole entry T165E/S171E, looked up): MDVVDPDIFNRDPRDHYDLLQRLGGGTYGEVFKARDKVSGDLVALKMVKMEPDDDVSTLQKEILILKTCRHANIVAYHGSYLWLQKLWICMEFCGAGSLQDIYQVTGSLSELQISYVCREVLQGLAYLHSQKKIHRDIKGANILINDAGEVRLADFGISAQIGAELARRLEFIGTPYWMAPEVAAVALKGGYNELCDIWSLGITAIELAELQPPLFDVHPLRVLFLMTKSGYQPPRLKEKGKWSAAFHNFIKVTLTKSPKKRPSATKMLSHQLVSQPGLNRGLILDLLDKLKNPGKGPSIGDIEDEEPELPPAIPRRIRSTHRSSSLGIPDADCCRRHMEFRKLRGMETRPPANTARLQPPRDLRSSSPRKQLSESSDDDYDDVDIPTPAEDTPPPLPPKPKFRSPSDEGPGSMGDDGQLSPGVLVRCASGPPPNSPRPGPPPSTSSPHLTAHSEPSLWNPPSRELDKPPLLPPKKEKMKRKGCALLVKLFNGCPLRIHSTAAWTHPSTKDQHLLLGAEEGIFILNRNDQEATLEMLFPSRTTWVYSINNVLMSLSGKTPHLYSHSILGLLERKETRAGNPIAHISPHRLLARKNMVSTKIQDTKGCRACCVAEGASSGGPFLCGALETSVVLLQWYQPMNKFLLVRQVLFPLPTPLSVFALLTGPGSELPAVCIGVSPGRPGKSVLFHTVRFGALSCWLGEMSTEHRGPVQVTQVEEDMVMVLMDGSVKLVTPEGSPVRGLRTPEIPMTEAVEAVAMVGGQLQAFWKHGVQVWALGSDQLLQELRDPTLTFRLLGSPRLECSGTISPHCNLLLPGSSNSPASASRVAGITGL
REPORTED ENDPOINT: Ki (pM)
Give your result in pM as a bare value.

Enquiry: I would be grateful if you could share the reported Ki for Cc1c(N)cncc1-c1cc2cc(Nc3cc4n(n3)CC(=O)N(CCN3CC(O)C3)CC4)ncc2cc1F .
Return: 13

The values you see were collected from BindingDB's records for patent US12378249.
